Test system: T-47D breast
test.summary: NCI-60 one-dose screen, 48 h (100 = growth as untreated, 0 = no growth, -100 = all killed)
stated.conditions: 10 µM unless noted
The panel holds about 83,000 compounds, 20% with a hit somewhere; the sample as a whole holds those more often.

# compound, result.units, growth
rows = [
    ("CCN1C(=O)/C(=c2\\sc3n(c2=O)C2C(NN=3)N(CC)C(=O)N2CC)c2ccccc21 (configuration not stated)", "%", 39.5),
    ("CCCCCCNC(=O)Oc1ccc(/C(=C(/CC)Cc2ccccc2)c2ccc(OCCCN(C)C)cc2)cc1", "%", 54.4),
    ("COc1ccc(CCNC(=O)COc2cc3c(Nc4ccc(F)c(Cl)c4)ncnc3cc2OC)cc1OC", "%", 70),
    ("[2H]C([2H])([2H])Oc1cccc(/C=C/C(=O)/C=C(/C=C/c2cccc(OC([2H])([2H])[2H])c2OC([2H])([2H])[2H])OB(F)F)c1OC([2H])([2H])[2H]", "%", 50.6),
    ("Brc1ccc(/C=C(/C2=NCCN2)n2ccc3ccccc32)cc1", "%", 53.1),
    ("COc1cc(/C=C2\\CCC/C(=C\\c3cc(CN4CCCC4)c(O)c(OC)c3)C2=O)cc(CN2CCCC2)c1O", "%", 95.9),
    ("COc1cc(-c2nc3occn3c2-c2ccnc(NCCCNS(=O)(=O)c3ccc(O)cc3)n2)ccc1F", "%", 84.8),
]

====

Test system: KM12 colon
test.summary: NCI-60 one-dose screen, 48 h (100 = growth as untreated, 0 = no growth, -100 = all killed)
stated.conditions: 10 µM unless noted
The panel holds about 83,000 compounds, 20% with a hit somewhere; the sample as a whole holds those more often.
measured.property: growth (%)

# compound, measured.property, assay.result
measured = [
    ("O=C1/C(=C/c2cn(-c3ccccc3)nc2-c2ccccc2)SC(=S)N1c1ccccc1", "growth", 101),
    ("COc1ccc(-c2nc(Cl)c3c(C)nn(-c4ccc(F)cc4)c3n2)cc1", "growth", 104),
    ("CCOC(=O)c1ccc(Nc2ncnc3c2cnn3-c2cccc(F)c2)cc1", "growth", 99.3),
    ("CC(=O)c1nn(-c2ccccc2)/c(=N/N=Cc2cn(-c3ccccc3)nc2-c2cc3ccccc3oc2=O)s1", "growth", 106),
    ("O=C(NNc1ccccc1)c1ccccc1", "growth", 33.5),
    ("COc1ccc2c(c1)CC[C@@H]1[C@@H]2CC[C@]2(C)C3C(=CCC4C(=O)N(c5ccccc5)C(=O)C43)C[C@@H]12 (stereo not given in full)", "growth", 93.6),
    ("CCCN1C(=O)/C(=c2\\sc3n(c2=O)C2C(NN=3)N(CC)C(=O)N2CC)c2ccccc21 (stereo not given)", "growth", 20),
    ("c1ccc(-c2cc(-c3cc(-c4ccccc4)on3)no2)cc1", "growth", 92.8),
    ("COc1ccc(-c2csc(NC(=O)CN3CCN(CCO)CC3)n2)cc1NS(=O)(=O)c1cccc2c(N(C)C)cccc12", "growth", 77.2),
    ("CC1=C2[C@@H](CC1)[C@]1(C)O[C@@](C(C)C)(C[C@H]1OC(=O)CO)[C@H]2OC(=O)C1CC1c1ccccc1 (stereo not given in full)", "growth", 73.9),
]

====

System: NCI-H23 lung
test.summary: NCI-60 one-dose screen, 48 h (100 = growth as untreated, 0 = no growth, -100 = all killed)
stated.conditions: 10 µM unless noted
About 83,000 compounds went through this panel and 20% of them were active in at least one assay; those are over-represented in the sample as a whole. Calls of active or inactive are those of the source. Rule for the calls: active = growth percent below 10; inactive = the rest.
measured.property: growth

# compound, target.under.test, measured.property, assay.result
measured = [
    ("Cc1nc2sc(C(=O)Nc3cccc4ncccc34)c(N)c2cc1C(C)O (stereo not drawn)", "NCI-H23 lung", "growth", "80.4% (inactive)"),
    ("[2H]C([2H])([2H])Oc1cccc(/C=C/C(=O)/C=C(/C=C/c2cccc(OC([2H])([2H])[2H])c2OC([2H])([2H])[2H])OB(F)F)c1OC([2H])([2H])[2H]", "NCI-H23 lung", "growth", "69.9% (inactive)"),
    ("CCCCCCCCCCCCCCCCCCn1cc(COc2ccc(C=O)cc2)nn1", "NCI-H23 lung", "growth", "90.4% (inactive)"),
    ("N=C(N)c1ccc(-c2ccc(-c3ccc(Cl)c(Cl)c3)s2)cc1", "NCI-H23 lung", "growth", "63.1% (inactive)"),
    ("CCCCCCCC/C=C\\CCCCCCCCOc1ccccc1CC(=O)NCC[N+]1(C)CCOCC1", "NCI-H23 lung", "growth", "69.5% (inactive)"),
    ("COc1cc(/C=C/C(=O)c2ccc(NC(=O)CSc3nnc(-c4cc(-c5ccccc5)nc5ccccc45)n3-c3ccccc3)cc2)cc(OC)c1OC", "NCI-H23 lung", "growth", "86.8% (inactive)"),
    ("NCCOCCOc1ccccc1", "NCI-H23 lung", "growth", "97.2% (inactive)"),
    ("CCCNNC(=O)/C=C/c1ccc(CNCCc2c(C)[nH]c3ccccc23)cc1", "NCI-H23 lung", "growth", "38.6% [2.5 µM] (inactive)"),
]

====

Test system: MOLT-4 leukemia
test.summary: NCI-60 one-dose screen, 48 h
stated.conditions: 10 µM unless noted
About 83,000 compounds went through this panel and 20% of them were active in at least one assay; those are over-represented in the sample as a whole. Activity calls are given as the source filed them. The calls were made as follows: active = growth percent below 10; inactive = the rest.
Classes used: active, inactive

# compound, class.assignment
rows = [
    ("CCOC(=O)C1=C(C)NC(=O)NC1c1c(Cl)n(-c2ccccc2)c2ccccc12 (centres undefined)", "inactive"),
    ("COc1ccc(-c2nc(Cl)c3c(C)nn(-c4ccc(F)cc4)c3n2)cc1", "inactive"),
    ("C=C1C(=O)O[C@H]2[C@H]1CC/C(CNS(=O)(=O)c1ccc3ccccc3c1)=C\\CC[C@@]1(C)O[C@@H]21", "active"),
    ("CCCNNC(=O)/C=C/c1ccc(CNCCc2c(C)[nH]c3ccccc23)cc1", "inactive"),
    ("O=C(Nc1ncc(Cc2cccc(C(F)(F)F)c2)s1)c1ccc(-n2cnnn2)cc1", "inactive"),
    ("Cc1nc2sc(C(=O)Nc3cccc4ccccc34)c(N)c2cc1C(=O)/C=C/c1ccccc1", "inactive"),
    ("Cc1[nH]c(C(=O)Nc2nc3ccc(NC(=O)CCN)cc3s2)c(Cl)c1Cl", "inactive"),
    ("CCN1C(=O)/C(=c2\\sc3n(c2=O)C2C(NN=3)N(CC)C(=O)N2CC)c2ccccc21 (centres undefined)", "inactive"),
    ("COc1cccc(NC(=O)c2sc3nc(C)c(C(O)c4ccccc4)cc3c2N)c1 (centres undefined)", "inactive"),
    ("Cc1cc2nc(C(Cl)Cl)nc(-c3ccc(Cl)cc3)n2n1", "inactive"),
    ("N=C1/C(=C2\\NC3C=CC=CC3S2)C(c2ccc(Cl)cc2)C2C(=O)N(c3ccccc3)C(=S)N12 (centres undefined)", "inactive"),
    ("CCCCCCCCCCCCCCCCCCOc1cccc(CC(=O)OCC[N+](CC)(CC)CC)c1", "inactive"),
    ("CSc1nnc(-c2cc3c([nH]c4ccccc43)c(-c3cccc(O)c3)n2)n1-c1ccc(C)cc1", "inactive"),
    ("COc1cc(-c2nn(-c3cccc(NC(=O)CCN4CCN(C)CC4)c3)cc2-c2ccncc2)ccc1Cl", "inactive"),
    ("CCOC(=O)c1cnn(-c2ccc(S(N)(=O)=O)cc2)c1N", "inactive"),
    ("Oc1ccccc1C=Nc1ccc(N2CCN(c3ccccc3)CC2)cc1", "inactive"),
    ("COc1ccc(C/C(C)=C(\\c2ccc(O)cc2)c2ccc(OCCCN(C)C)cc2)cc1", "inactive"),
    ("COC1/C=C/OC2(C)Oc3c(C)c(O)c4c(O)c(c(C=NOC(c5ccccc5)c5ccccc5)c(O)c4c3C2=O)NC(=O)/C(C)=C/C=C/C(C)C(O)C(C)C(O)C(C)C(OC(C)=O)C1C (centres undefined)", "active"),
    ("COc1ccc(-c2ccccc2)cc1-c1c(Nc2cc(Cl)cc(Cl)c2O)c(=O)c1=O", "inactive"),
    ("CC(C)(C)c1cc(C(C)(C)c2ccccc2)cc(Cc2cc(C(C)(C)c3ccccc3)cc(C(C)(C)C)c2O)c1O", "inactive"),
    ("COCCOc1cc2ncnc(N3CCN(S(=O)(=O)c4ccccc4Cl)CC3)c2cc1OCCOC", "inactive"),
    ("CC1(Cc2ccccc2)CC2=C(C(=O)O1)C(c1ccccc1)NC(=O)N2 (centres undefined)", "inactive"),
    ("COc1ccc(-c2[nH]c3ccccc3c2-c2ccc(OC)cc2)cc1", "inactive"),
    ("CN(Cc1ccccc1)c1nc(Cl)c(C2CC(c3ccc4c(c3)OCO4)=NN2c2cc(Cl)cc(Cl)c2)s1 (centres undefined)", "inactive"),
    ("C#CCOCC1CN(C)C(=O)O1 (centres undefined)", "inactive"),
    ("COc1cc(-c2[nH]ncc2Nc2ccc(Cl)cc2)cc(OC)c1OC", "inactive"),
    ("O=[N+]([O-])c1cc(C(F)(F)F)ccc1Sc1ccc(C(F)(F)F)cc1[N+](=O)[O-]", "active"),
    ("CCCCC1COc2cccc3c2N1C=C/C3=C\\C(=O)N(C)c1cccc(Cl)c1 (centres undefined)", "inactive"),
    ("Nc1ncc(-c2ccc3ncnc(N4CCc5ccc(Cl)cc54)c3c2)cc1C(F)(F)F", "active"),
]
